# MEASUREMENT_TARGET: Breakpoint cluster region protein (Homo sapiens) (UniProt P11274)
# Sequence (P11274 whole entry, looked up, the tested form may be a part): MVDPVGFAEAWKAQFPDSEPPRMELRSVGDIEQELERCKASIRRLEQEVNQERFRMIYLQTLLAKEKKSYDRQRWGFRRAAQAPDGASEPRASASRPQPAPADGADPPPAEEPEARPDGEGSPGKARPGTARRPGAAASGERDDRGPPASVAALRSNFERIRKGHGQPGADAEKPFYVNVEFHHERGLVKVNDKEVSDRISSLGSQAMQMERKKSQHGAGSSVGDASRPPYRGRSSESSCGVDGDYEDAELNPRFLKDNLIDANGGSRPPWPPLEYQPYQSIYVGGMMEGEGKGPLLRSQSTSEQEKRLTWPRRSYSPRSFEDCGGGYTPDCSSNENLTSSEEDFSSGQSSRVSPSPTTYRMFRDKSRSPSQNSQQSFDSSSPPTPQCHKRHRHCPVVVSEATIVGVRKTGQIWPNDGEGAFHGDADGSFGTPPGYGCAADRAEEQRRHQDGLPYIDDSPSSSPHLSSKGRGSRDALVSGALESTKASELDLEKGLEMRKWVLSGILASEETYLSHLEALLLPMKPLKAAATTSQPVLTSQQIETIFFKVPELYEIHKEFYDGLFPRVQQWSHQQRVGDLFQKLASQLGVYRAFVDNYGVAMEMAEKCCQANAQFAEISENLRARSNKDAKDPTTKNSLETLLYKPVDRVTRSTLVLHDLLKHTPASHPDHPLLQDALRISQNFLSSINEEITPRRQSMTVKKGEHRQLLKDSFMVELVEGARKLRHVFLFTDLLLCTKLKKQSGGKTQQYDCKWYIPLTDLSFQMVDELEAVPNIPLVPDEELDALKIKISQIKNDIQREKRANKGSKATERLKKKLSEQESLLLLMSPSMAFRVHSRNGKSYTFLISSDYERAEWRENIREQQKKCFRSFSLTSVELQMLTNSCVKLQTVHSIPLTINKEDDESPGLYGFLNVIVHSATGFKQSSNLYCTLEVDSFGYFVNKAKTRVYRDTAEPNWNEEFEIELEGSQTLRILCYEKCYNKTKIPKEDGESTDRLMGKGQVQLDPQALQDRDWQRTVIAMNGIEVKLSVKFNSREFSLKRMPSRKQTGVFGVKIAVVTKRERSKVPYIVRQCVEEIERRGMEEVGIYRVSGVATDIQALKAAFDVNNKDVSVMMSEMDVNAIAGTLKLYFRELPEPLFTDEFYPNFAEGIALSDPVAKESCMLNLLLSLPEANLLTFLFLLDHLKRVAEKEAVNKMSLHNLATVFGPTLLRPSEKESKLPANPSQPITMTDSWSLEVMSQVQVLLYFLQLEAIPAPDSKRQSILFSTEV
# TEST_METHOD_NOTES: breakpoint cluster region GTPase-activating protein domain inhibitors, dose-response, specificity counterscreen for MgcRacGAP inhibitor project, cell-free, Rac1 GTPase, Biomol Green phosphate readout (AID 652149)
# ASSAY_CONTEXT: BCR GAP/Rac1 GTPase, Biomol green phosphate absorbance
pIC50: −log10 of the molar value.
Respond with yes for pIC50 values of 5 and above, no for values below.

Solved cases (2 shown):
- SMILES_TEXT: "O=c1c2ccccc2sn1-c1ccc(Cl)cc1Cl"
  ASSIGNED_CLASS: "yes"
- SMILES_TEXT: "C[n+]1c(-c2ccc(C=NNC(=O)c3ccc(C(=O)NN=Cc4ccc(-c5cn6ccccc6[n+]5C)cc4)cc3)cc2)cn2ccccc21"
  ASSIGNED_CLASS: "no"

# next molecule below
## Input Quick check: does CCN(CC)c1ccc(C(=C2C=CC(=[N+](CC)CC)C=C2)c2ccc(N(CC)CC)cc2)cc1 have pIC50 greater than or equal to 5?
## Output no
